# Test system: Staphylococcus aureus
# method_notes: Antimicrobial activity against methicillin, quinolone-resistant Staphylococcus aureus by broth microdilution/CLSI method
# Type: functional
# recorded_conditions: Staphylococcus aureus; read-out: MIC
Output Yes for records whose MIC is lower than 0.5 µg/mL, No for records at or above 0.5 µg/mL.

Observe how each entry below is paired with its result.
CO[C@H]1CN(c2nc(C(=O)NCC3(C)OCCO3)c(C(=O)O)s2)CC[C@H]1NC(=O)c1[nH]c(C)c(Cl)c1Cl :: Yes
COC1(OC)CN(c2ncc(C(=O)O)s2)CC[C@H]1NC(=O)c1[nH]c(C)c(Cl)c1Cl :: No
CO[C@H]1CN(c2nc(C(=O)O)c(C)s2)CC[C@H]1NC(=O)c1[nH]c(C)c(Cl)c1Cl :: Yes
CO[C@H]1CN(c2nc(C(=O)N(C)C)c(C(=O)O)s2)CC[C@H]1NC(=O)c1[nH]c(C)c(Cl)c1Cl (racemic) :: No
Cc1[nH]c(C(=O)N[C@@H]2CCN(c3ncc(C(=O)O)s3)CC23OCCCO3)c(Cl)c1Cl :: No
CO[C@H]1CO[C@@]2(CN(c3ncc(C(=O)O)s3)CC[C@H]2NC(=O)c2[nH]c(C)c(Cl)c2Cl)OC1 (relative stereo) :: No

stdin: Please check: MIC for "CO[C@H]1CN(c2nc(-c3ccncn3)c(C(=O)O)s2)CC[C@H]1NC(=O)c1[nH]c(C)c(Cl)c1Cl" , strictly under 0.5 µg/mL or not?
stdout: Yes

stdin: Please check: MIC for "Cc1[nH]c(C(=O)N[C@@H]2CCN(c3ncc(C(=O)O)s3)C[C@@H]2F)c(Cl)c1Cl" , strictly under 0.5 µg/mL or not?
stdout: No

stdin: Please check: MIC for Cc1[nH]c(C(=O)N[C@@H]2CCN(c3ncc(C(=O)O)s3)C[C@@H]2Cl)c(Cl)c1Cl (racemic) , strictly under 0.5 µg/mL or not?
stdout: No

stdin: Please check: MIC for "CO[C@@H]1CN(c2ncc(C(=O)O)s2)CC[C@H]1NC(=O)c1[nH]c(C)c(Cl)c1Cl" , strictly under 0.5 µg/mL or not?
stdout: No

stdin: Please check: MIC for CCO[C@H]1CN(c2ncc(C(=O)O)s2)CC[C@H]1NC(=O)c1[nH]c(C)c(Cl)c1Cl (racemic) , strictly under 0.5 µg/mL or not?
stdout: No
